Test: Metabolic stability in human microsome
Settings: human microsome 1 mg/mL, 5 μM compound, 1 mM NADPH
Criterion: Metabolic stability (CLh. int), Human meeting or surpassing 3000 µL/min/mg. Met: 1 (yes). Not met: 0 (no).

molecule	class label
CN1CCN(c2nc3ncc(C(F)(F)F)cc3n3cnnc23)CC1	0 (no)
CNC1CN(c2nc3ncc(Br)cc3n3nnnc23)C1	1 (yes)

Reported Metabolic stability (CLh. int), Human at or above 3000 µL/min/mg? "CN1CCN(c2nc3ncc(Br)cc3n3cnnc23)CC1"
1 (yes)

Reported Metabolic stability (CLh. int), Human at or above 3000 µL/min/mg? "CNC1CN(c2nc3ncc(Br)cc3n3cnnc23)C1.Cl"
0 (no)

Reported Metabolic stability (CLh. int), Human at or above 3000 µL/min/mg? "Clc1cnc2nc(N3C[C@@H]4C[C@H]3CN4)c3nncn3c2c1"
0 (no)

Reported Metabolic stability (CLh. int), Human at or above 3000 µL/min/mg? "CNC1CN(c2nc3ncc(Br)cc3n3cnnc23)C1"
0 (no)

Reported Metabolic stability (CLh. int), Human at or above 3000 µL/min/mg? "CNC1CN(c2nc3ncc(Br)cc3n3nnnc23)C1.Cl"
1 (yes)

Reported Metabolic stability (CLh. int), Human at or above 3000 µL/min/mg? "CN(O)C1CN(c2nc3ncc(Br)cc3n3cnnc23)C1"
0 (no)

Reported Metabolic stability (CLh. int), Human at or above 3000 µL/min/mg? "Cn1cc2c(n1)c(N1CCNCC1)nc1ncc(Cl)cc12"
1 (yes)

Reported Metabolic stability (CLh. int), Human at or above 3000 µL/min/mg? "CNC1CN(C2=Nc3ncc(Br)cc3N3CCN=C23)C1"
1 (yes)

Reported Metabolic stability (CLh. int), Human at or above 3000 µL/min/mg? "CNC1CN(c2nc3ncc(Br)cc3n3ccnc23)C1"
1 (yes)

Reported Metabolic stability (CLh. int), Human at or above 3000 µL/min/mg? "CNC1CN(c2nc3ncc(C)cc3n3cnnc23)C1"
0 (no)

Reported Metabolic stability (CLh. int), Human at or above 3000 µL/min/mg? "CN1CCN(c2nc3nc(Cl)c(Cl)cc3n3cnnc23)CC1"
1 (yes)

Reported Metabolic stability (CLh. int), Human at or above 3000 µL/min/mg? CN1CCN(c2nc3ccc(Cl)cc3n3cnnc23)CC1 [reference compound]
1 (yes)

Reported Metabolic stability (CLh. int), Human at or above 3000 µL/min/mg? "CNC1CN(c2nc3ncc(C(F)(F)F)cc3n3cnnc23)C1"
0 (no)

Reported Metabolic stability (CLh. int), Human at or above 3000 µL/min/mg? "CN1CCN(c2nc3nc(C#N)c(Cl)cc3n3cnnc23)CC1"
1 (yes)

Reported Metabolic stability (CLh. int), Human at or above 3000 µL/min/mg? "C[C@H]1CN(c2nc3ncc(Cl)cc3n3cnnc23)CCN1C"
0 (no)

Reported Metabolic stability (CLh. int), Human at or above 3000 µL/min/mg? "C[C@H]1CN(c2nc3ncc(Cl)cc3n3cnnc23)CCN1"
0 (no)

Reported Metabolic stability (CLh. int), Human at or above 3000 µL/min/mg? "CN1CCN(c2nc3ncc(Cl)cc3c3nc(C4CC4)nn23)CC1"
1 (yes)
